// reported FOB per item
biological target: human IL-12RB2 with C-terminal HA tag, transiently expressed on HEK-293T cells (human) (UniProt Q99665); test: FACS, periplasmic extract, HEK-293T
Sequence (Q99665 24-862): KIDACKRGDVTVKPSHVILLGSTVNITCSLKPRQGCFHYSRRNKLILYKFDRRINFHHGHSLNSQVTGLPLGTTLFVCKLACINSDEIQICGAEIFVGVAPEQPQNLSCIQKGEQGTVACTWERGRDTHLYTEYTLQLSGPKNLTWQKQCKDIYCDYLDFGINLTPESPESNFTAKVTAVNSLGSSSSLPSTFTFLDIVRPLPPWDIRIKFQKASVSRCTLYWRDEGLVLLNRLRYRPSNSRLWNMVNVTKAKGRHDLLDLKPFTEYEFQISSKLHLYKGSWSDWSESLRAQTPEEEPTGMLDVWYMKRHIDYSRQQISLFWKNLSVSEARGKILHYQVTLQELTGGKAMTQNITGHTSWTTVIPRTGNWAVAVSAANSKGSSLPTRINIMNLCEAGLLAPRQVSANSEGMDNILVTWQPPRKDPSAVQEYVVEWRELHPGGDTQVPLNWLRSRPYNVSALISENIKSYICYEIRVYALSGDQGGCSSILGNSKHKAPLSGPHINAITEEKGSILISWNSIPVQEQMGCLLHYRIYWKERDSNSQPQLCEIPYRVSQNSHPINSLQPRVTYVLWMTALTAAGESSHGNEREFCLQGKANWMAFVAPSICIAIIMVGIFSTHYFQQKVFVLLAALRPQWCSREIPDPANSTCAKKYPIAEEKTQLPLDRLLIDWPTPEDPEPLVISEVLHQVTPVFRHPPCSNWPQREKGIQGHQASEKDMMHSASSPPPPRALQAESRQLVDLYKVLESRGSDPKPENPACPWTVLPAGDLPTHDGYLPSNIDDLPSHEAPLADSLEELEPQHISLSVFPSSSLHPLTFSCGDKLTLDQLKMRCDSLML
QUANTITY_NAME: FOB

BINDER	REPORTED_MEASUREMENT
VHH219B2 (VHH) VHH: QVQLEESGGGLVQAGGSLRLSCAASGRTFSSYVVGWFRQAPGKEREFVGRISWSGARTYYADSVEGRFTISRDNAKNTVYLQMNSLKPEDTAVYYCAADLKWEVLLSEHYEYWGQGTQVTVSS	1.54 fold
VHH216B2 (VHH) VHH: QVQLVESGGGLVQPGGSLRLSCATSEHTFGTYRMGWFRQAPGKEREFVAGISWTGQTTYYAASVKGRFAISKDNAKNTVYLQMNTLKSDDTAVYYCAVETNNLGRWDRPSEYDYWGQGTQVTVSS	0.99 fold
VHH241B2 (VHH) VHH: QVQLVESGGGLVQLGDSLRLSCAASGRGFSSWTMAWFRQALGKRREFVAAITATGARTCSAESEGRFTISRDNAKNMVFLQMNSLKAEDTAVYYCAATGIASWDPGMADKYTYWGQGTQVTVSS	1.63 fold
